# measurement target: Phospholipid hydroperoxide glutathione peroxidase GPX4 (Homo sapiens)
# assay explanation: Primary qHTS Assay for Inhibitors of Recombinant Selenoprotein Glutathione Peroxidase 4 (GPX4) (AID 1845192); further: nearly all actives have a fitted effect of over 65% in size
# study conditions: recombinant GPX4, GR-coupled NADPH fluorescence, 15 min; series mostly up to 50 µM
Inconclusive results are not listed. Active and inactive are the calls of the source. The call rests on the fitted dose curve; in most records, active means well fitted inhibition curve with a large enough effect; inconclusive means small, poorly fitted or top-dose-only effect; inactive means flat fitted curve, though single readings scatter.
Use one of these outcomes when replying: active, inactive

Please indicate how the test categorized COc1ccc2c(c1)[C@]1(C[C@H]1c1ccc3c(/C=C/c4ccc(CN5C[C@@H](C)O[C@@H](C)C5)cc4)n[nH]c3c1)C(=O)N2 .
inactive

New cases:
Status in this test for CC(C)(C)C[C@H]1N[C@@H](C(=O)NC2CCC(O)CC2)[C@H](c2cccc(Cl)c2F)[C@@]12C(=O)Nc1cc(Cl)ccc12 (some centres undefined) ?
inactive

Field entry: NCCNc1ccc(NCCN)c2c1C(=O)c1ccncc1C2=O
inactive

// repeat for O=C(NO)c1cnc(NC2(c3ccccc3)CC2)nc1 and report
inactive

Another: COc1ccc(S(=O)(=O)N2CCc3cccc(-c4ccncc4)c32)cc1
inactive

Follow-up item: [O-][n+]1cccc(-c2nc3c(Cl)cccc3cc2[C@@H](Nc2ncnc3cccnc23)C(F)(F)F)c1
inactive

###

# measurement target: Rap guanine nucleotide exchange factor 3 (Homo sapiens) (UniProt O95398)
# Sequence (O95398 whole entry, looked up): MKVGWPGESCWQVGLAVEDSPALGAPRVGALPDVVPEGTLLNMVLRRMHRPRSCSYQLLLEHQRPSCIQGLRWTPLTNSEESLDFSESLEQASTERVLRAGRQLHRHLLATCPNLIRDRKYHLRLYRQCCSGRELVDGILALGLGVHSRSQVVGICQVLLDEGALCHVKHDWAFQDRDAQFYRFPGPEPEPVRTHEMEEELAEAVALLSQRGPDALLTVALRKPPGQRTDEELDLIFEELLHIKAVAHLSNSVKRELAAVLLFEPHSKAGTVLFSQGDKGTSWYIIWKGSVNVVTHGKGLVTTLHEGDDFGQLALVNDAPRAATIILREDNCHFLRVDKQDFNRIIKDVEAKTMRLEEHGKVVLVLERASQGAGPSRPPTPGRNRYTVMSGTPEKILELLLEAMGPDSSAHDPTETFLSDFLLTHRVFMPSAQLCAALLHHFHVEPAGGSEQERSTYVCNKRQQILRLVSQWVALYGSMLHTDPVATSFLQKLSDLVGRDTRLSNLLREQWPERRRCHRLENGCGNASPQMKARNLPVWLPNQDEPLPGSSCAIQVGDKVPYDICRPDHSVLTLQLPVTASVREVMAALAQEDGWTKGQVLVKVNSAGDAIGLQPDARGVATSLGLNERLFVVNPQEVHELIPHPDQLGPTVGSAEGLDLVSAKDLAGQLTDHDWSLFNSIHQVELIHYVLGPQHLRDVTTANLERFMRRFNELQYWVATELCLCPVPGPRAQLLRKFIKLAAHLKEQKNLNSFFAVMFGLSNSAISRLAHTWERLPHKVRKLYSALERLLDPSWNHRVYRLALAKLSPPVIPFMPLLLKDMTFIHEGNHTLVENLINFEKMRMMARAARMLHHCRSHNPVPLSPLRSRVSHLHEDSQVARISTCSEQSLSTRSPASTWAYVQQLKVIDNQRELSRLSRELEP
# assay explanation: Counterscreen qHTS for antagonist of cAMP-regulated guanine nucleotide exchange factor 3 (EPAC1) (AID 1645888);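 further: fluorescence loss as bound BODIPY-GDP is released from Rap1B; % of control where 0% means no effect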
# study conditions: Rap1B-BODIPY-GDP nucleotide exchange, fluorescence; series mostly up to 154 µM
Results filed as inconclusive are left out. The source made the active and inactive calls. The call rests on the fitted dose curve; in most records, active means well fitted inhibition curve with a large enough effect; inconclusive means small, poorly fitted or top-dose-only effect; inactive means no such curve, though single readings can be large or run the other way.
attribute measured: activity change, negative = inhibition

What value of measured activity change, negative = inhibition is listed for COc1ccc(OC)c(/C=C2\SC(=S)N(NS(=O)(=O)c3ccc(C)cc3)C2=O)c1 ?
inactive

Check COc1cc(OC)nc(Oc2cc(/C=N/O)ccc2OC)n1 too.
-10.5% [at 30.8 µM] (inactive)

// same read-out, input: COc1ccccc1Cn1c(=O)oc2ccc(C)cc21
inactive

Next compound: CC1CC(C)CN(C(=O)c2cccc(S(=O)(=O)Nc3cc(C(F)(F)F)ccc3Cl)c2)C1 (stereo not given)
inactive

What about this compound? COc1ccc(-c2nc3n(c(=O)c2C#N)CCS3)cc1
-1.96% [at 30.8 µM] (inactive)

More entries:
Which activity change, negative = inhibition is listed for COC(=O)c1ccccc1NC(=O)CN1C(=O)COc2ccccc21 ?
inactive

Also check CC(C)(C)c1ccc(-c2nc(SCCCOc3ccccc3)n3[nH]c(=O)cc3n2)cc1
inactive

Thanks! And COc1ccc(CC(=O)Nc2nc(-c3cccnc3)cs2)cc1 ?
-4.63% [at 30.8 µM] (inactive)

Also COc1cc(/C=C/CNC[C@H]2O[C@@H](n3cnc4c(=O)[nH]c(N)nc43)[C@H](O)[C@@H]2O)ccc1O , if possible.
inactive

Okay, and CC1CN(C(=O)COC(=O)COc2ccc(C#N)cc2)CC(C)O1 (stereo not given) ?
-3.73% [at 30.8 µM] (inactive)

###

# measurement target: Rap guanine nucleotide exchange factor 3 (Homo sapiens) (UniProt O95398)
# assay explanation: Confirmatory qHTS for antagonist of cAMP-regulated guanine nucleotide exchange factor 3 (EPAC1) (AID 1645880); further: nearly all actives have a fitted effect of over 55% in size
# study conditions: EPAC1 Rap1B-BODIPY-GDP exchange, fluorescence; series mostly up to 115 µM
Inconclusive results are not listed. Active and inactive are the calls of the source. Calls follow the shape of the dose curve; as a rule, active = well fitted inhibition curve with a large enough effect; inconclusive = small, poorly fitted or top-dose-only effect; inactive = no such curve, though single readings can be large or run the other way.
Write down one outcome, taken from 1.0 = active, 0.0 = inactive

For orientation, consider the following solved cases.
I'd appreciate the recorded outcome for CN(Cc1ccccc1)c1ncnc2onc(-c3ccc(F)cc3)c12 from this test.
0.0

Now consider CC1(C(=O)NS(=O)(=O)c2cccc(F)c2)CCN1C(=O)C1(c2ccc(Cl)cc2)CCC1 (centres undefined) .
1.0

Then what about the compound COc1ccc(C(CC(=O)N2CCOCC2)c2c(OC)cc(OC)c3c(-c4ccccc4)cc(=O)oc23)cc1 (centres undefined) ?
1.0

Continuing:
Dear colleague, could you share the recorded outcome for COCCNC(=O)c1ccc2c(c1)N(Cc1ccc(C(F)(F)F)cc1)C(=O)c1ccccc1S2 when you have a moment?
0.0

Try the compound CCOC(=O)Cn1c(=O)oc2cc(S(=O)(=O)Nc3c(C)cc(C)cc3C)ccc21
0.0

What do you have for CCOc1ccc(CCNC(=O)c2cccc(S(=O)(=O)N3CCCCC3)c2)cc1OCC ?
0.0

What do you have for O=CN(CCN(C=O)CN1CCCCC1)CN1CCCCC1 ?
0.0

Can you handle COc1cc(/C=N/NC(=O)c2ccc3c(c2)OCCO3)cc(Br)c1O next?
1.0

Now consider Cc1cc(N=Nc2ccccc2C(=O)O)c(C)c(C)c1O and answer again.
1.0

Subsequent entry: COc1ccc2ccccc2c1C(=O)/C=C\c1ccoc1
1.0

Source listed as PubChem BioAssay (NCATS).
